- Substrate: gfPET
- procedureText: Proxy for plastic degradation [Released monomer concentration (HPLC/LC-MS) (TPA+MHET+BHET)]
- particulars: 65 °C
quantityName: Proxy for plastic degradation (mmol/h)
Report as a plain number; the unit mmol/h is understood.

Name the recorded Proxy for plastic degradation for unnamed (protein) MANPYERGPAPTTSSIEASRGPFAIASVTVSRSSVSGFGGGTIYYPRDTSEGTFGAVAIAPGFTADEGSMAWYGPRIASQGFVVFTIDTITRLDQPDSRGRQLLAALDYLTQRSSVRSRIDSSRLAVMGHSMGGGGSLEASVSRPSLKAAIPLTPWNLKKNWRDVRVPTLIVGAESDSIASVRTHAEPFYESIPSTTNKAYLELNNATHFAPNISNTTIAKYSISWLKRFVDNDTRYEQFLCPPPRPDRDIEEYRSTCPH .
0.05

Value source: the PETadex activity labels (doi:10.1002/cssc.202101062)
